Assay: Biodistribution in SCID mice bearing AsPC-1 xenografts
Format: in vivo
Conditions: male, mouse, heart, iv, 3 pmol, total radioactivity, 24 h pi, Controls, read-out: uptake in Heart
Procedure: Twenty male severe combined immunodeficiency (SCID) mice (23.1 ± 1.6 g body weight, six weeks of age on arrival day; NCSR “Demokritos” Animal House, Athens, Greece) were used in the biodistribution experiments. […] Sample radioactivity was measured on the γ-counter together with proper standards of the injected dose. Results were calculated as percentage of injected activity per gram tissue (%IA/g) and provided as mean %IA/g values ± sd. […]
Peptide text beside a SMILES is read from it. * marks the point of attachment. Palmitoyl = CCCCCCCCCCCCCCCC(=O)*; X1 = NCCNCC(CNCCN)C(=O)*
endpoint label: tissue uptake at 24 h (%ID/g)
Give just the number in %ID/g; leave the unit off.

Input line: Please give the measured tissue uptake at 24 h for this compound: CCCCCCCCCCCCCCCC(=O)NCCCC[C@H](NC(=O)C(CNCCN)CNCCN)C(=O)N[C@@H](CCCNC(=N)N)C(=O)N[C@@H](CCCNC(=N)N)C(=O)N1CCC[C@H]1C(=O)N[C@@H](Cc1ccc(O)cc1)C(=O)N[C@H](C(=O)N[C@@H](CC(C)C)C(=O)O)[C@@H](C)CC [[^99mTc]Tc-DT9, metal not drawn] (X1-K(Palmitoyl)RRPYIL-OH)
Output line: 0.64
